// reported IC50 for each item listed
- tested_system: UniProtKB P23977
- protocol_text: Displacement of [3H]WIN-35428 from Dopamine transporter of rat caudate putamen
- Format: tissue-based

- compound: "CO[C@@H]1CC2CC(OC(c3ccccc3)c3ccc(Cl)cc3)CC1N2C (single isomer, unassigned)"
  tested_system: "UniProtKB P23977"
  IC50 / nM: 750
- compound: "CO[C@@H]1CC2CC(OC(c3ccc(F)cc3)c3ccc(F)cc3)CC1N2C (single isomer, unassigned)"
  tested_system: "UniProtKB P23977"
  IC50 / nM: 95
- compound: "CN1C2C[C@H](OC(c3ccc(F)cc3)c3ccc(F)cc3)CC1[C@H](O)C2 (some centres not stated)"
  tested_system: "UniProtKB P23977"
  IC50 / nM: 140
- compound: "CO[C@@H]1CC2CC(OC(c3ccccc3)c3ccccc3)CC1N2C (single isomer, unassigned)"
  tested_system: "UniProtKB P23977"
  IC50 / nM: 975
- compound: "CO[C@@H]1CC2C[C@H](OC(c3ccc(F)cc3)c3ccc(F)cc3)CC1N2C (some centres not stated)"
  tested_system: "UniProtKB P23977"
  IC50 / nM: 10
- compound: "COCO[C@H]1CC2C[C@H](OC(c3ccccc3)c3ccccc3)CC1N2C (some centres not stated)"
  tested_system: "UniProtKB P23977"
  IC50 / nM: 4500
- compound: "CO[C@H]1CC2C[C@H](OC(c3ccccc3)c3ccccc3)CC1N2C (some centres not stated)"
  tested_system: "UniProtKB P23977"
  IC50 / nM: 276
- compound: "CO[C@H]1CC2C[C@H](OC(c3ccc(F)cc3)c3ccc(F)cc3)CC1N2C (some centres not stated)"
  tested_system: "UniProtKB P23977"
  IC50 / nM: 25
- compound: "CN1C2C[C@H](OC(c3ccccc3)c3ccc(Cl)cc3)CC1[C@@H](O)C2 (some centres not stated)"
  tested_system: "UniProtKB P23977"
  IC50 / nM: 600
- compound: "CO[C@H]1CC2C[C@H](OC(c3ccccc3)c3ccc(Cl)cc3)CC1N2C (some centres not stated)"
  tested_system: "UniProtKB P23977"
  IC50 / nM: 32
- compound: "CN1C2CCCC1[C@@H](OC(c1ccc(F)cc1)c1ccc(F)cc1)C2 (some centres not stated)"
  tested_system: "UniProtKB P23977"
  IC50 / nM: 1130
- compound: "CN1C2C[C@H](OC(c3ccc(F)cc3)c3ccc(F)cc3)CC1[C@@H](O)C2 (some centres not stated)"
  tested_system: "UniProtKB P23977"
  IC50 / nM: 12
- compound: "COCO[C@H]1CC2C[C@H](OC(c3ccccc3)c3ccc(Cl)cc3)CC1N2C (some centres not stated)"
  tested_system: "UniProtKB P23977"
  IC50 / nM: 400
- compound: "CN1C2CCCC1[C@H](OC(c1ccc(F)cc1)c1ccc(F)cc1)C2 (some centres not stated)"
  tested_system: "UniProtKB P23977"
  IC50 / nM: 900
- compound: "COCO[C@@H]1CC2C[C@H](OC(c3ccc(F)cc3)c3ccc(F)cc3)CC1N2C (some centres not stated)"
  tested_system: "UniProtKB P23977"
  IC50 / nM: 2500
- compound: "CN1C2C[C@H](OC(c3ccccc3)c3ccccc3)CC1[C@@H](O)C2 (some centres not stated)"
  tested_system: "UniProtKB P23977"
  IC50 / nM: 1300
- compound: "COCO[C@H]1CC2C[C@H](OC(c3ccc(F)cc3)c3ccc(F)cc3)CC1N2C (some centres not stated)"
  tested_system: "UniProtKB P23977"
  IC50 / nM: 340

* * *

- tested_system: Sodium-dependent dopamine transporter (Rattus norvegicus)
- Sequence (P23977 whole entry): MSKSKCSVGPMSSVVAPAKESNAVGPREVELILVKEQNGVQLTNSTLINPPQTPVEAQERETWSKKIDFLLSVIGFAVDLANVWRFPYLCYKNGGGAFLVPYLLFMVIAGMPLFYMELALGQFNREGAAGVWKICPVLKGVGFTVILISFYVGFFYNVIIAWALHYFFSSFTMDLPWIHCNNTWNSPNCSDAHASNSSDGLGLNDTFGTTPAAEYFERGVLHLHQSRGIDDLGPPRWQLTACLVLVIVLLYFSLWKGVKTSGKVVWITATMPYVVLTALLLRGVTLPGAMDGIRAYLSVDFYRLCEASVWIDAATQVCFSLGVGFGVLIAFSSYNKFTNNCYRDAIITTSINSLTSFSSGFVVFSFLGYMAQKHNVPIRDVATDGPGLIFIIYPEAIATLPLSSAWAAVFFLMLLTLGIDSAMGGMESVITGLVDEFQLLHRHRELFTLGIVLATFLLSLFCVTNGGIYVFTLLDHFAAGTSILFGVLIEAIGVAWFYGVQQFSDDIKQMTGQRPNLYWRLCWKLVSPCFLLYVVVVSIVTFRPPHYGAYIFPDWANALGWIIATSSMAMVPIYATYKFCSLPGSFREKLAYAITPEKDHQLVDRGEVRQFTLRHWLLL
- protocol_text: Inhibition of [3H]dopamine uptake into rat striatal synaptosomes
- Type: functional, subcellular, Brain

- compound: "CO[C@@H]1CC2CC(OC(c3ccccc3)c3ccc(Cl)cc3)CC1N2C (single isomer, unassigned)"
  IC50, nM: 519
- compound: "CN1C2C[C@H](OC(c3ccccc3)c3ccc(Cl)cc3)CC1[C@@H](O)C2 (some centres not stated)"
  IC50, nM: 39.1
- compound: "COCO[C@@H]1CC2C[C@H](OC(c3ccc(F)cc3)c3ccc(F)cc3)CC1N2C (some centres not stated)"
  IC50, nM: 491
- compound: "CO[C@@H]1CC2CC(OC(c3ccccc3)c3ccccc3)CC1N2C (single isomer, unassigned)"
  IC50, nM: 240
- compound: "COCO[C@H]1CC2C[C@H](OC(c3ccc(F)cc3)c3ccc(F)cc3)CC1N2C (some centres not stated)"
  IC50, nM: 79.7
- compound: "CO[C@H]1CC2C[C@H](OC(c3ccccc3)c3ccc(Cl)cc3)CC1N2C (some centres not stated)"
  IC50, nM: 179
- compound: "CN1C2CCCC1[C@@H](OC(c1ccc(F)cc1)c1ccc(F)cc1)C2 (some centres not stated)"
  IC50, nM: 199
- compound: "CO[C@H]1CC2C[C@H](OC(c3ccc(F)cc3)c3ccc(F)cc3)CC1N2C (some centres not stated)"
  IC50, nM: 104
- compound: "CN1C2C[C@H](OC(c3ccc(F)cc3)c3ccc(F)cc3)CC1[C@H](O)C2 (some centres not stated)"
  IC50, nM: 162
- compound: "COCO[C@H]1CC2C[C@H](OC(c3ccccc3)c3ccccc3)CC1N2C (some centres not stated)"
  IC50, nM: 1080
- compound: "COCO[C@H]1CC2C[C@H](OC(c3ccccc3)c3ccc(Cl)cc3)CC1N2C (some centres not stated)"
  IC50, nM: 194
- compound: "CN1C2CCCC1[C@H](OC(c1ccc(F)cc1)c1ccc(F)cc1)C2 (some centres not stated)"
  IC50, nM: 347
- compound: "CO[C@H]1CC2C[C@H](OC(c3ccccc3)c3ccccc3)CC1N2C (some centres not stated)"
  IC50, nM: 139
- compound: "CO[C@@H]1CC2C[C@H](OC(c3ccc(F)cc3)c3ccc(F)cc3)CC1N2C (some centres not stated)"
  IC50, nM: 12.4
- compound: "CO[C@@H]1CC2CC(OC(c3ccc(F)cc3)c3ccc(F)cc3)CC1N2C (single isomer, unassigned)"
  IC50, nM: 165
- compound: "CN1C2C[C@H](OC(c3ccc(F)cc3)c3ccc(F)cc3)CC1[C@@H](O)C2 (some centres not stated)"
  IC50, nM: 8.1
- compound: "CN1C2C[C@H](OC(c3ccccc3)c3ccccc3)CC1[C@@H](O)C2 (some centres not stated)"
  IC50, nM: 149

* * *

As shown below, each of these molecules has a reported pIC50 value.
- tested_system: Sodium-dependent serotonin transporter (Rattus norvegicus, UniProt P31652)
- Sequence (P31652 whole entry): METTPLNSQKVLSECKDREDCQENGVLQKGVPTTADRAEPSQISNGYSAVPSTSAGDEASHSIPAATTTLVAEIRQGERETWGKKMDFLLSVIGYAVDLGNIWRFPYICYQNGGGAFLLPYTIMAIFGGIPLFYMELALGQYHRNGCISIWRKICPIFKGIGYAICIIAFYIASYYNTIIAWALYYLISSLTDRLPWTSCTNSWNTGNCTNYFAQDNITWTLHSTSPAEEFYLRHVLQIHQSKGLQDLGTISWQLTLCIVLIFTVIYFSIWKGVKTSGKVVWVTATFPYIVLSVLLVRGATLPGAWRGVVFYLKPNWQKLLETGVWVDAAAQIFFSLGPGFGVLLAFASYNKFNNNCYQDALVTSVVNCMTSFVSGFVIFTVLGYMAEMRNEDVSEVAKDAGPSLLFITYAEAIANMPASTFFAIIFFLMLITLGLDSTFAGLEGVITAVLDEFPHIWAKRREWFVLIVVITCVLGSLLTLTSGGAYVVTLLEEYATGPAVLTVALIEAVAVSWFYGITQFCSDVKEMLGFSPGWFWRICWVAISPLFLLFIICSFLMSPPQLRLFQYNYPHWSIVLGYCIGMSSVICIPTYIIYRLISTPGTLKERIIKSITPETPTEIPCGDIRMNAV
- protocol_text: Displacement of [3H]paroxetine from Serotonin transporter of rat caudate putamen
- Format: tissue-based
pIC50: −log10 of the molar value.
measured_attribute: pIC50

- molecule: "CN1C2C[C@H](OC(c3ccc(F)cc3)c3ccc(F)cc3)CC1[C@@H](O)C2 (stereo not given in full)"
  measured_attribute: "pIC50"
  qualifying_sign: "="
  result: 4.96
- molecule: "CO[C@@H]1CC2CC(OC(c3ccc(F)cc3)c3ccc(F)cc3)CC1N2C (single isomer, unassigned)"
  measured_attribute: "pIC50"
  qualifying_sign: "<"
  result: 8.00
- molecule: "CO[C@@H]1CC2C[C@H](OC(c3ccc(F)cc3)c3ccc(F)cc3)CC1N2C (stereo not given in full)"
  measured_attribute: "pIC50"
  qualifying_sign: "="
  result: 6.55
- molecule: "CO[C@@H]1CC2CC(OC(c3ccccc3)c3ccccc3)CC1N2C (single isomer, unassigned)"
  measured_attribute: "pIC50"
  qualifying_sign: "<"
  result: 4.00
- molecule: "CN1C2C[C@H](OC(c3ccc(F)cc3)c3ccc(F)cc3)CC1[C@H](O)C2 (stereo not given in full)"
  measured_attribute: "pIC50"
  qualifying_sign: "<"
  result: 4.00
